Assay: antimalarial activity against Dd2 strain (AID 2302);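 note: 0% = DMSO untreated growth and 100% = chloroquine plus artemisinin killed control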
Details: P. falciparum Dd2 in RBCs, LDH growth readout, 72 h; at 2 µM; stronger effect = higher value
The source made the active and inactive calls.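 Rule for the calls: active = growth inhibition above 50% at the single 2 µM test dose, taken to imply half-maximal potency below 2 µM; inactive = the rest.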
assay-metric: growth inhibition

>>> print(df.to_string())
                                   molecule  endpoint_value
0  CC1CCC(NC(=O)c2nn(-c3ccc(Cl)cc3)c(=O)c3ccccc23)CC1 (stereo not given)    67% (active)

# input for lookup
What value of growth inhibition has been recorded for this entry: CCc1c[nH]c2c(N3CCCC3=O)cc(C(=O)N[C@@H](Cc3ccccc3)[C@H](O)CNC(C)(C)c3cccc(OC)c3)cc12
98% (active)
